// data source = patent US20090111854A1

# System Name: human mGluR5d (Homo sapiens, UniProt P41594)
# Construct: The culture medium contains hygromycin B and Zeocin as selection agents; The separate IP3 assay names 'GHEK stably expressing the human mGluR5d'
# Sequence (P41594 21-942 isoform P41594-3 limits assumed): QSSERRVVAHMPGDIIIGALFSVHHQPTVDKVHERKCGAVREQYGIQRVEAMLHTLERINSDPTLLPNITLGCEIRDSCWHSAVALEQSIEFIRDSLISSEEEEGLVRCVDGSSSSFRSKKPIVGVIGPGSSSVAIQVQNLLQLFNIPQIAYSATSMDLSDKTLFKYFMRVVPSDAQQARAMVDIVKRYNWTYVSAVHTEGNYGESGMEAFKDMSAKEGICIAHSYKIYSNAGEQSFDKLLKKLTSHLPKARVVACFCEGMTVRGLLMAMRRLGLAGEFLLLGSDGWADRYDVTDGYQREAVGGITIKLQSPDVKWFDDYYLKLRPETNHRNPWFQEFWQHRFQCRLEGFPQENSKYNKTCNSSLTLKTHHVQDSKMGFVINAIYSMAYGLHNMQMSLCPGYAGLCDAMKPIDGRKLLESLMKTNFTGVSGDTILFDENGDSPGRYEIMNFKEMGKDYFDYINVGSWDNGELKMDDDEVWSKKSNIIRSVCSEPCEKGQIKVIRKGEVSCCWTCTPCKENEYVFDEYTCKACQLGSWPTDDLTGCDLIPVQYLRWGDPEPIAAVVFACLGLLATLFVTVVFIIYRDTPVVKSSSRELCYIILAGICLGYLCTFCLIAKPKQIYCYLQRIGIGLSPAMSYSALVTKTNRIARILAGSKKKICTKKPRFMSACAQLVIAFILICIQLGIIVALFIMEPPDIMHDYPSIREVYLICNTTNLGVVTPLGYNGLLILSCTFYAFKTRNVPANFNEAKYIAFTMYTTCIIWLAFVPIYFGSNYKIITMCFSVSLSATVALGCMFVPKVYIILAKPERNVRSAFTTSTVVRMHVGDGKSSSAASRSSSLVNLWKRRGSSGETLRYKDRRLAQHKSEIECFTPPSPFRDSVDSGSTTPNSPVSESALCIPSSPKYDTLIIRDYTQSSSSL
# Test Summary: FLIPR assay, functional assessment of mGluR5 antagonism (intracellular calcium mobilization)
# Test Parameters: cells expressing human mGluR5d; read-out: FLIPR hmGluR5d
Quantity Name: IC50 (nM)
Note: unit nM is implicit; provide only the numeric part.

Below: 2 compounds and their reported IC50.
>>> endpoint_result("Cn1c(-c2ccc[n+]([O-])c2)nnc1N1CCC[C@@H]1c1nnn(-c2cccc(Cl)c2)n1 [Example 6]")
108
>>> endpoint_result("C[C@@H](c1noc(-c2cccc(Cl)c2)n1)N(C)c1nnc(-c2cc[n+]([O-])cc2)n1C [Example 4]")
81

Next, consider the following compound.
query: # input compound: Cn1c(-c2ccc[n+]([O-])c2)nnc1N1CCCC[C@@H]1c1nnn(-c2cccc(Cl)c2)n1 [Example 5] ; wanted: its IC50
result: 49
